# Lookup of reported mass density keyed by entry
settings: 323.15 K; 101.33 kPa; Liquid; Vibrating tube method
quantity-name: mass density (kg/m3)

{"columns": ["molecule", "quantity-name", "measured-value"],
 "data": [
  ["CN1CCOCC1 [N-methylmorpholine]", "mass density", 890.85],
  ["c1ccccc1 [benzene]", "mass density", 846.62],
  ["C1CCCCC1 [cyclohexane]", "mass density", 750.03],
  ["Cc1ccccc1 [toluene]", "mass density", 838.42]
]}

---

Let's look at some compounds and their measured mass density.
conditions: 303.15 K; 101.33 kPa; Liquid; Vibrating tube method

{"columns": ["compound", "mass density [kg/m3]"],
 "data": [
  ["Cc1ccccc1 [toluene]", 857.62],
  ["CN1CCOCC1 [N-methylmorpholine]", 909.44],
  ["C1CCCCC1 [cyclohexane]", 769.18],
  ["c1ccccc1 [benzene]", 868.23]
]}

---

details: 323.15 K; 101.33 kPa; Liquid; Capillary tube (Ostwald / Ubbelohde) method
Numbers after ± are expanded uncertainties.
Entries and their viscosity values follow.

{"columns": ["compound", "viscosity"],
 "data": [
  ["CN1CCOCC1 [N-methylmorpholine]", "0.814 ± 0.011 mPa·s"],
  ["Cc1ccccc1 [toluene]", "0.422 ± 0.007 mPa·s"],
  ["c1ccccc1 [benzene]", "0.436 ± 0.007 mPa·s"],
  ["C1CCCCC1 [cyclohexane]", "0.604 ± 0.008 mPa·s"]
]}

---

Listing: viscosity of selected compounds
details: 298.15 K; 101.33 kPa; Liquid; Capillary tube (Ostwald / Ubbelohde) method

{"columns": ["smiles-structure", "result-unit", "viscosity"],
 "data": [
  ["CN1CCOCC1", "mPa·s", 0.881],
  ["Cc1ccccc1", "mPa·s", 0.553],
  ["c1ccccc1", "mPa·s", 0.601],
  ["C1CCCCC1", "mPa·s", 0.904]
]}

---

details: 298.15 K; 101.33 kPa; Liquid; Vibrating tube method

{"columns": ["smiles-structure", "result-unit", "mass density"],
 "data": [
  ["CN1CCOCC1", "kg/m3", 914.06],
  ["Cc1ccccc1", "kg/m3", 862.11],
  ["C1CCCCC1", "kg/m3", 773.25],
  ["c1ccccc1", "kg/m3", 873.58]
]}

---

settings: 313.15 K; 101.33 kPa; Liquid; Vibrating tube method
Listed molecules paired with reported mass density
quantity-name: mass density (kg/m3)

{"columns": ["smiles-structure", "result-unit", "measured-value"],
 "data": [
  ["Cc1ccccc1", "kg/m3", 847.87],
  ["c1ccccc1", "kg/m3", 857.38],
  ["C1CCCCC1", "kg/m3", 759.58],
  ["CN1CCOCC1", "kg/m3", 899.76]
]}

---

A collection of compounds and their measured viscosity
conditions: 313.15 K; 101.33 kPa; Liquid; Capillary tube (Ostwald / Ubbelohde) method
quantity-name: viscosity (mPa·s)

{"columns": ["smiles-structure", "measured-value"],
 "data": [
  ["C1CCCCC1", 0.698],
  ["Cc1ccccc1", 0.471],
  ["c1ccccc1", 0.494],
  ["CN1CCOCC1", 0.833]
]}

---

Each entry below carries its recorded viscosity.
details: 303.15 K; 101.33 kPa; Liquid; Capillary tube (Ostwald / Ubbelohde) method
quantity-name: viscosity (mPa·s)

{"columns": ["smiles-structure", "result-unit", "measured-value"],
 "data": [
  ["C1CCCCC1", "mPa·s", 0.809],
  ["CN1CCOCC1", "mPa·s", 0.864],
  ["Cc1ccccc1", "mPa·s", 0.523],
  ["c1ccccc1", "mPa·s", 0.563]
]}
